Source listed as PubChem BioAssay AID1963422.

tested on: 463943-066-T-J2-PDC complex spheroid growth; assay: Anticancer human tumor 463943-066-T-J2-PDC patient-derived colon adenocarcinoma cell line growth inhibition [Asc]; conditions: second compound 0.00949 µM; first compound 0.316 µM; stronger effect = lower value;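 note: compound exposure lasted 7 days; 100% = DMSO vehicle control wells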
Please provide measured viability, T/C for the entries that follow.
Reply numerically in %, unit not repeated.

q: Fill blank: measured viability, T/C of the molecule C#Cc1c(F)ccc2cc(O)cc(-c3ncc4c(N5CC6CCC(C5)N6)nc(OCC56CCCN5CC(F)C6)nc4c3F)c12 (stereo not drawn) + CCN1C(C(=O)NC23CCC(C(=O)O)(CC2)CC3)C(c2cccc(Cl)c2F)C2(C(=O)Nc3cc(Cl)ccc32)C12CCCCC2 is ____.
a: 94.3

q: Fill blank: measured viability, T/C of the molecule COc1c(OCCCN2CCOCC2)ccc2c3n(c(=NC(=O)c4cnc(N)nc4)nc12)CCN3 + CCN1C(C(=O)NC23CCC(C(=O)O)(CC2)CC3)C(c2cccc(Cl)c2F)C2(C(=O)Nc3cc(Cl)ccc32)C12CCCCC2 is ____.
a: 51.2

q: Fill blank: measured viability, T/C of the molecule CCN1CCN(Cc2ccc(Nc3ncc(F)c(-c4cc(F)c5nc(C)n(C(C)C)c5c4)n3)nc2)CC1 + CCN1C(C(=O)NC23CCC(C(=O)O)(CC2)CC3)C(c2cccc(Cl)c2F)C2(C(=O)Nc3cc(Cl)ccc32)C12CCCCC2 is ____.
a: 110

q: Fill blank: measured viability, T/C of the molecule C=C(F)C(=O)N1CCN(c2nc(OCC3CCCN3C)nc3c2CCN(c2cccc4cccc(Cl)c24)C3)CC1CC#N (stereo not drawn) + CCN1C(C(=O)NC23CCC(C(=O)O)(CC2)CC3)C(c2cccc(Cl)c2F)C2(C(=O)Nc3cc(Cl)ccc32)C12CCCCC2 is ____.
a: 103

q: Fill blank: measured viability, T/C of the molecule C=CC(=O)N1CCN(c2nc(=O)n(-c3c(C)ccnc3C(C)C)c3nc(-c4c(O)cccc4F)c(F)cc23)C(C)C1 (stereo not drawn) + CCN1C(C(=O)NC23CCC(C(=O)O)(CC2)CC3)C(c2cccc(Cl)c2F)C2(C(=O)Nc3cc(Cl)ccc32)C12CCCCC2 is ____.
a: 93

q: Fill blank: measured viability, T/C of the molecule O=C(c1cc(Cc2n[nH]c(=O)c3ccccc23)ccc1F)N1CCN(C(=O)C2CC2)CC1 + CCN1C(C(=O)NC23CCC(C(=O)O)(CC2)CC3)C(c2cccc(Cl)c2F)C2(C(=O)Nc3cc(Cl)ccc32)C12CCCCC2 is ____.
a: 95.9

q: Fill blank: measured viability, T/C of the molecule O=C(c1ccc(F)c(F)c1Nc1ccc(I)cc1F)N1CC(O)([C@@H]2CCCCN2)C1 + CCN1C(C(=O)NC23CCC(C(=O)O)(CC2)CC3)C(c2cccc(Cl)c2F)C2(C(=O)Nc3cc(Cl)ccc32)C12CCCCC2 is ____.
a: 39.1

q: Fill blank: measured viability, T/C of the molecule CNC(C)C(=O)NC1CN(S(=O)(=O)c2cccc(S(=O)(=O)N3CCC4CCC(C(=O)NC(c5ccccc5)c5ccccc5)N4C(=O)C(NC(=O)C(C)NC)C3)c2)CCC2CCC(C(=O)NC(c3ccccc3)c3ccccc3)N2C1=O (stereo not drawn) + CCN1C(C(=O)NC23CCC(C(=O)O)(CC2)CC3)C(c2cccc(Cl)c2F)C2(C(=O)Nc3cc(Cl)ccc32)C12CCCCC2 is ____.
a: 95.9
